All figures here come from patent US20150086555A1.

- test.target: recombinant soluble homotrimeric HA of A/Netherlands/219/03 (H7N7) (Influenza A virus A/Netherlands/219/03(H7N7))
- measurement.notes: HA microarray, BCC supernatant
- applied.conditions: remark: other sources report otherwise
quantity: Trimeric HA Binding: RLU

Q: Find the recorded Trimeric HA Binding: RLU belonging to TCN-528 (5087_P17) (antibody, V domains shown) VH: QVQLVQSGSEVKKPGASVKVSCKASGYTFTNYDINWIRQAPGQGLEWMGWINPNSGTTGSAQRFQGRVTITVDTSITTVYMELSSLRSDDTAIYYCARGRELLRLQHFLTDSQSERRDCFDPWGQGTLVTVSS VL: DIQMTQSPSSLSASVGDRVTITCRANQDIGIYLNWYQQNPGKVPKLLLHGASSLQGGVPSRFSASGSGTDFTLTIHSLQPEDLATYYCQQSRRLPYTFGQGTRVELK and report it.
A: 49300 RLU

Q: Find the recorded Trimeric HA Binding: RLU belonging to TCN-553 (5261_C18) (antibody, V domains shown) VH: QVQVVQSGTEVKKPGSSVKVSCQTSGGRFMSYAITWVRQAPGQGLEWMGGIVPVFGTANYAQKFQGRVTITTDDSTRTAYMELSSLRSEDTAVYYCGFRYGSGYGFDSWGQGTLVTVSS VL: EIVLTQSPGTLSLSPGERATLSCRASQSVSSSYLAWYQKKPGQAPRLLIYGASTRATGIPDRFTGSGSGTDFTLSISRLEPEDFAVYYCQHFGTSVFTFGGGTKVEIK and report it.
A: 1840 RLU

Q: Find the recorded Trimeric HA Binding: RLU belonging to TCN-552 (5249_I23) (antibody, V domains shown) VH: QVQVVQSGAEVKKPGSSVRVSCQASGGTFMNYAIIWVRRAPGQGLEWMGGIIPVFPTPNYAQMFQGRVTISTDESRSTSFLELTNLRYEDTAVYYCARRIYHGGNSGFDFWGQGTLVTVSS VL: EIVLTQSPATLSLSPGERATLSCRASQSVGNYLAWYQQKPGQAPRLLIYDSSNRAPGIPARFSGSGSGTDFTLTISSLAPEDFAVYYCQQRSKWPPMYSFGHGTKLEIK and report it.
A: 1240 RLU
